Reported LC50 values for the following molecules.
# Tested on: CAKI-1
# TEST_DETAILS: Cytotoxicity against human Caki1 cells
# Assay type: functional
Reply with just the number (in µM).

# STRUCTURE_SMILES, LC50 [µM]
records = [
    ("COc1cc(/C=C/c2cc(OC)c3c(CC=C(C)C)c[nH]c3c2)cc2c1O[C@]1(C)CC[C@@H](O)C(C)(C)[C@H]1C2", 53.7),
]

Problem: Write down LC50 measured for item COc1cc(/C=C/c2cc(OC)c3cc[nH]c3c2)cc2c1O[C@]1(C)CC[C@@H](O)C(C)(C)[C@H]1C2
Solution: 0.851

Problem: Write down LC50 measured for item COc1cc(/C=C/c2cc(O)c3c(CC=C(C)C)c[nH]c3c2)cc2c1O[C@]1(C)CC[C@@H](O)C(C)(C)[C@H]1C2
Solution: 50.1

Problem: Write down LC50 measured for item COc1cc(/C=C/c2cc(O)c3c(c2)C[C@@H]2C(C)(C)[C@H](O)CC[C@@]2(C)O3)cc2[nH]cc(CC=C(C)C)c12
Solution: 79.4

Problem: Write down LC50 measured for item CC1(C)[C@H](O)CC[C@@]2(C)Oc3c(O)cc(/C=C/c4cc(O)c5cc[nH]c5c4)cc3C[C@H]12
Solution: 15.1

Problem: Write down LC50 measured for item COc1cc(/C=C/c2cc(O)c3c(c2)C[C@@H]2C(C)(C)[C@H](O)CC[C@@]2(C)O3)cc2c1ccn2C
Solution: 89.1

* * *

# Tested on: MDA-MB-435
# TEST_DETAILS: Cytotoxicity against human MDA-MB-435 cells
# Assay type: functional
# CONDITION_DESCRIPTION: read-out: pLC50 (the source's name) (converted)
hey, just use Fulfilled if measured CC50 is less than 60 µM, otherwise Not fulfilled

# STRUCTURE_SMILES, GROUP_LABEL
records = [
    ("CC1(C)[C@H](O)CC[C@@]2(C)Oc3c(O)cc(/C=C/c4cc(O)c5cc[nH]c5c4)cc3C[C@H]12", "Fulfilled"),
    ("COc1cc(/C=C/c2cc(O)c3c(C/C=C(\\C)CCC=C(C)C)c[nH]c3c2)cc2c1O[C@]1(C)CC[C@@H](O)C(C)(C)[C@H]1C2", "Not fulfilled"),
    ("COc1cc(/C=C/c2cc(OC)c3c(CC=C(C)C)c[nH]c3c2)cc2c1O[C@]1(C)CC[C@@H](O)C(C)(C)[C@H]1C2", "Not fulfilled"),
    ("COc1cc(/C=C/c2cc(O)c3cc(CC=C(C)C)[nH]c3c2)cc2c1O[C@]1(C)CC[C@@H](O)C(C)(C)[C@H]1C2", "Not fulfilled"),
    ("COc1cc(/C=C/c2cc(OC)c3ccn(C)c3c2)cc2c1O[C@]1(C)CC[C@@H](O)C(C)(C)[C@H]1C2", "Not fulfilled"),
]

Problem: Item COc1cc(/C=C/c2cc(O)c3ccn(C)c3c2)cc2c1O[C@]1(C)CC[C@@H](O)C(C)(C)[C@H]1C2 : CC50 beneath 60 µM, strictly?
Solution: Not fulfilled

Problem: Item COc1cc(/C=C/c2cc(OC)c3c(C/C=C(\C)CCC=C(C)C)c[nH]c3c2)cc2c1O[C@]1(C)CC[C@@H](O)C(C)(C)[C@H]1C2 : CC50 beneath 60 µM, strictly?
Solution: Not fulfilled

Problem: Item COc1cc(/C=C/c2cc(OC)c3cc[nH]c3c2)cc2c1O[C@]1(C)CC[C@@H](O)C(C)(C)[C@H]1C2 : CC50 beneath 60 µM, strictly?
Solution: Not fulfilled

Problem: Item COc1cc(/C=C/c2cc(O)c3cc[nH]c3c2)cc2c1O[C@]1(C)CC[C@@H](O)C(C)(C)[C@H]1C2 : CC50 beneath 60 µM, strictly?
Solution: Not fulfilled

Problem: Item COc1cc(/C=C/c2cc(O)c3c(CC=C(C)C)c[nH]c3c2)cc2c1O[C@]1(C)CC[C@@H](O)C(C)(C)[C@H]1C2 : CC50 beneath 60 µM, strictly?
Solution: Fulfilled

Problem: Item COc1cc(/C=C/c2cc(O)c3c(c2)C[C@@H]2C(C)(C)[C@H](O)CC[C@@]2(C)O3)cc2[nH]cc(CC=C(C)C)c12 : CC50 beneath 60 µM, strictly?
Solution: Not fulfilled

Data provenance: ChEMBL document CHEMBL3232844
